Recorded values, source patent US20210253718A1.

# measured.on: T1, FZD9 cysteine-rich domain (CRD), MYC-tagged and GPI-anchored on CHO cells (human, UniProt O00144 35-161, GPI anchor)
# T1 construct: also called FZD9 CRD; CHO-myc-FZDGPI; not shown: MYC tag and GPI anchor signal
# T1 sequence: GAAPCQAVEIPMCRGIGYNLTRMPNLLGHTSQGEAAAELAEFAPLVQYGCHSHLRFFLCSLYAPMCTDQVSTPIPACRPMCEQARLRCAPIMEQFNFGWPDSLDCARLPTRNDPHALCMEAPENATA
# assay: immunofluorescence, CHO-CRD cells
measurement.label: binding result

// solved cases for binding result follow
binder | binding result
Fab-2925 (Fab, V domains shown, Fab; also called Fv-2925) VH: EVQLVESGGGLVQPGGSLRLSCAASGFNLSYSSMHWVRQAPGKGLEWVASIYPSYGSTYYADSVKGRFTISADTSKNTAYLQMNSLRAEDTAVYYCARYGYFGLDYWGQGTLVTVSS VL: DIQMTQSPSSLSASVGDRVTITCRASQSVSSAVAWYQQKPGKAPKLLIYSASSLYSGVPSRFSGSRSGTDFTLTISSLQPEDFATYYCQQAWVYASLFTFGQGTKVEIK | no binding
Fab-2902 (Fab, V domains shown, Fab; also called Fv-2902) VH: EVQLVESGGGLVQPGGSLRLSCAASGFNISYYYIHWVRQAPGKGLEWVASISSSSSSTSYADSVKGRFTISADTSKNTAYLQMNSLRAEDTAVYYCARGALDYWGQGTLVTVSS VL: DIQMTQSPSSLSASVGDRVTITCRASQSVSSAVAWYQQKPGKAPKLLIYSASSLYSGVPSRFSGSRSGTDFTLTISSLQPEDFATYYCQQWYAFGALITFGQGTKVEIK | no binding
Fab-2912 (Fab, V domains shown, Fab; also called Fv-2912) VH: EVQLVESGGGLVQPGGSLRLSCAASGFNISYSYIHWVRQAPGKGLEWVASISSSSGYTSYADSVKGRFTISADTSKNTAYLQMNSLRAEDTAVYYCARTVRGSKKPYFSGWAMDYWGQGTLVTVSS VL: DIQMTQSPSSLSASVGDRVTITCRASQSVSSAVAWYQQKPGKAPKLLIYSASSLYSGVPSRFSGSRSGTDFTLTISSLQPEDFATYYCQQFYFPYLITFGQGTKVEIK | no binding
Fab-2931 (Fab, V domains shown, Fab; also called Fv-2931) VH: EVQLVESGGGLVQPGGSLRLSCAASGFNLSYSSMHWVRQAPGKGLEWVAYISPYSGSTYYADSVKGRFTISADTSKNTAYLQMNSLRAEDTAVYYCARGSYWYVGGGWWVSGHGGMDYWGQGTLVTVSS VL: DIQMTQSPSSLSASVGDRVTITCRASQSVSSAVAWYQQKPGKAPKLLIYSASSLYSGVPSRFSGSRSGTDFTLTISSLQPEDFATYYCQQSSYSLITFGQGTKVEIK | no binding

Alright, here's another binder for you.
Task: Look at this binder and give its reported binding result. Fab-2907 (Fab, V domains shown, Fab; also called Fv-2907) VH: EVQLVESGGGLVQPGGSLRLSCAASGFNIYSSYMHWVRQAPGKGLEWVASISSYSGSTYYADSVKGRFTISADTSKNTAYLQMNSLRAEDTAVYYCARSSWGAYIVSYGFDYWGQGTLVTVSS VL: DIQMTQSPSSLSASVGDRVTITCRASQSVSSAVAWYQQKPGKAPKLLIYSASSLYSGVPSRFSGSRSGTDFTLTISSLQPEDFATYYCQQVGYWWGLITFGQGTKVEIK
Output: no binding
